Cited source for all entries: patent US20220194939A1

- TARGET: KHK (Homo sapiens)
- Construct: (His)6 tag (N); thrombin cleavage site (N)
- PROTOCOL TEXT: coupled enzyme assay for KHK activity
- CONDITIONS USED: purified human recombinant KHK, PK/LDH coupled assay, A340 at 25° C., 0.1 mM ATP, 0.2 mM fructose; isoform (KHK-C or KHK-A) not given
pIC50: −log10 of the molar value. Where a name gives a salt, the structure may show the parent alone.
REPORTED ENDPOINT: pIC50

Task: Report pIC50 for `CC(=O)OC[C@H](NC(=O)OC(C)C)C(=O)Nc1ccc2cnn(-c3cccc(C)c3)c2c1` tested on KHK (Homo sapiens).
Result: 4.52

I: CCCCCCCC(=O)OC[C@H](N)C(=O)Nc1ccc2cnn(-c3cccc(C)c3)c2c1 [Compound 24, hydrochloride]
II: Cc1cccc(-n2ncc3ccc(NC(=O)[C@H]4C[C@@H](N)C4)cc32)c1 [Compound 16, hydrochloride]
Task: Recorded pIC50 values differ for I and II ; which one is higher? Answer with the label corresponding to your selection.
Result: II
(II: 6.22, I: 4.92)

1: Cc1cccc(-n2ncc3ccc(NC(=O)[C@@H](N)CCO)cc32)c1 [Compound 10, hydrochloride]
2: Cc1cccc(-n2ncc3c(F)cc(NC(=O)[C@@H](N)CO)cc32)c1 [Compound 23, hydrochloride]
Task: Recorded pIC50 values differ for 1 and 2 ; which one is higher? Answer with the label corresponding to your selection.
Result: 2
(2: 7.62, 1: 6.40)

----------
- TARGET: KHK (Homo sapiens, UniProt P50053)
- Construct: (His)6 tag (N); thrombin cleavage site (N)
- PROTOCOL TEXT: coupled enzyme assay for KHK activity
- CONDITIONS USED: purified human recombinant KHK, PK/LDH coupled assay, A340 at 25° C., 0.1 mM ATP, 0.2 mM fructose; isoform (KHK-C or KHK-A) not given
Counter-ions that a name gives are not always drawn.
REPORTED ENDPOINT: IC50 (nM)

Task: Please give the measured IC50 for this compound: Cc1cccc(-n2ncc3ccc(NC(=O)[C@@H](N)CCN)cc32)c1 [Compound 13]
Result: 350

Task: Try Cc1cccc(-n2nc(C(F)F)c3ccc(NC(=O)[C@@H](N)CO)cc32)c1 [Compound 48, hydrochloride] next.
Result: 460

Task: Try Cc1cccc(-n2ncc3ccc(NC(=O)[C@H]4NCC[C@@H]4O)cc32)c1 [Compound 18, hydrochloride] next.
Result: 700

P: Cc1cccc(-n2ncc3ccc(NC(=O)[C@H]4CC[C@@H]4N)cc32)c1 (relative stereo) [Compound 9, hydrochloride]
Q: Cc1cccc(-n2ncc3ccc(NC(=O)[C@H](C)N)cc32)c1 [Compound 6, hydrochloride]
Task: Recorded IC50 values differ for P and Q ; which one is higher? Answer with the label corresponding to your selection.
Result: P
(P: 670 nM, Q: 110 nM)

----------
- TARGET: KHK (Homo sapiens, UniProt P50053)
- Construct: (His)6 tag (N); thrombin cleavage site (N); made in house; host or cells: E. coli BL-21 (DE3)
- Sequence (P50053 1-298): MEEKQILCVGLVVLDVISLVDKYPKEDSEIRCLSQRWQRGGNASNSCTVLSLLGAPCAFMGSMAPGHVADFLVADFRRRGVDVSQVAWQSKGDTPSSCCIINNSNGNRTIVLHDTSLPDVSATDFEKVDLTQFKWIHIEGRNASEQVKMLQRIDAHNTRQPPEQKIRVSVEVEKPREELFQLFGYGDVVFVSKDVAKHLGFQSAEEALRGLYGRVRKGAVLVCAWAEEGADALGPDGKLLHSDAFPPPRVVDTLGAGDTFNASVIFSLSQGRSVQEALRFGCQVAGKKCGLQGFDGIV
- PROTOCOL TEXT: coupled enzyme assay for KHK activity
- Type: biochemical
- CONDITIONS USED: purified human recombinant KHK, PK/LDH coupled assay, A340 at 25° C., 0.1 mM ATP, 0.2 mM fructose; isoform (KHK-C or KHK-A) not given
pIC50: −log10 of the molar value. Where a name gives a salt, the structure may show the parent alone.
REPORTED ENDPOINT: pIC50

Example entries and their recorded answers appear below.
Task: Please give the measured pIC50 for this molecule: Cc1cccc(-n2ncc3ncc(NC(=O)[C@@H](N)CO)cc32)c1 [Compound 45, hydrochloride]
Result: 6.60

Task: Try Cc1cccc(-n2nnc3ccc(NC(=O)[C@@H](N)CO)cc32)c1 [Compound 40, hydrochloride] next.
Result: 6.85

Task: Try `Cc1cccc(-n2ncc3ccc(NC(=O)[C@H](CO)NC(=O)OC(C)C)cc32)c1` next.
Result: 5.40

a: Cc1cccc(-n2ncc3ccc(NC(=O)[C@H](N)CCO)cc32)c1 [Compound 12, hydrochloride]
b: CCOC(=O)N[C@@H](CO)C(=O)Nc1ccc2cnn(-c3cccc(C)c3)c2c1
Task: Recorded pIC50 values differ for a and b ; which one is higher? Answer with the label corresponding to your selection.
Result: b
(b: 6.40, a: 6.07)
